- tgt: NS3h_1b(con1) HCV helicase (Hepatitis C virus genotype 1b, UniProt Q9WMX2)
- Sequence (Q9WMX2 1192-1657): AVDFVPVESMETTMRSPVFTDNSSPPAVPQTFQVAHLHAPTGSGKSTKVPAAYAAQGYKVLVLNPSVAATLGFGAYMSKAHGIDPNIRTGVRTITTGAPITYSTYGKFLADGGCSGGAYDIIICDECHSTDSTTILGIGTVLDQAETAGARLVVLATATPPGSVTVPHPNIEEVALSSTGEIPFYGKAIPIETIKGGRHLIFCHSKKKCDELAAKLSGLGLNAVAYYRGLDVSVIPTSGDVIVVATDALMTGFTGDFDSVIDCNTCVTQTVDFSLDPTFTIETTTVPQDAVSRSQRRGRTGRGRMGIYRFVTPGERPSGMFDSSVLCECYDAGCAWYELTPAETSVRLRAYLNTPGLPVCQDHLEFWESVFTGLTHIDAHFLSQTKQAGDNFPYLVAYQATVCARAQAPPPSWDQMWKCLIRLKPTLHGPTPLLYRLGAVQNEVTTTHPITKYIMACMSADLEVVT
pKi: −log10 of the molar value.

| smiles.record | pKi |
| --- | --- |
| Nc1ncnc2c1ncn2[C@@H]1O[C@H](COP(=O)(O)OP(=O)(O)OP(=O)(O)O)[C@@H](O)[C@H]1O | 3.16 |

* * *

- tgt: UniProt Q9WMX2
- protocol: Molecular beacon based helicase assay
- Type: biochemical
- settings: 0.5 mM NTP analog, 2 mM MgCl2, initial rates

| molecule | tgt | unwinding rate, % of that seen with ATP |
| --- | --- | --- |
| CO[C@@H]1[C@H](O)[C@@H](COP(=O)(O)OP(=O)(O)OP(=O)(O)O)O[C@H]1n1cnc2c(N)ncnc21 [2′-O-methyl-ATP] | UniProt Q9WMX2 | 34% |
| O=c1[nH]c(=O)c2ncn([C@@H]3O[C@H](COP(=O)(O)OP(=O)(O)OP(=O)(O)O)[C@@H](O)[C@H]3O)c2[nH]1 [XTP, Xanthosine triphosphate] | UniProt Q9WMX2 | 7% |
| Nc1ncnc2c1ncn2[C@@H]1O[C@H](COP(=O)(O)OP(=O)(O)OP(=O)(O)O)[C@@H](O)[C@H]1F [2′-F-ATP] | UniProt Q9WMX2 | 145% |
| [N-]=[N+]=NC1C(O)C(COP(=O)(O)OP(=O)(O)OP(=O)(O)O)OC1n1cnc2c(N)ncnc21 (centres unmarked) [2′-azido-ATP] | UniProt Q9WMX2 | 61% |
